Tested on: 782815-120-R-J1-PDC complex spheroid viability;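 further: spheroids exposed to compounds for 7 days before reading; 100% = DMSO vehicle control viability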
Assay: Anticancer human tumor 782815-120-R-J1-PDC patient-derived colon adenocarcinoma cell line growth inhibition [RAS]
Details: second compound 0.316 µM; first compound 0.0316 µM; active compounds read low
Excerpt: RAS pathway inhibitors in Combinations in Complex Spheroids A high-throughput screen of multi-cell type tumor spheroids was designed to identify active combinations of RAS pathway inhibitors and targeted small molecules. Complex spheroids include a stromal component modeled by human endothelial cells (HUVEC) and fibroblasts modeled by human mesenchymal stem cells (MSCs). […] Compounds. […] If the clinical Cmax for an agent had not been determined, the highest concentration tested was 10 microM. […]
# reported viability, T/C; entries follow
The reply should be a number in %, with the unit left off.

# query: viability, T/C | item NC1c2ccccc2OC12CCN(c1cnc3c(N4CCCc5ncccc54)n[nH]c3n1)CC2 (stereo not drawn) + C#Cc1c(F)ccc2cc(O)cc(-c3ncc4c(N5CC6CCC(C5)N6)nc(OCC56CCCN5CC(F)C6)nc4c3F)c12 | system: 782815-120-R-J1-PDC complex spheroid viability;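 further: spheroids exposed to compounds for 7 days before reading; 100% = DMSO vehicle control viability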
99.6

Consider next the compound CCN1CCN(Cc2ccc(Nc3ncc(F)c(-c4cc(F)c5nc(C)n(C(C)C)c5c4)n3)nc2)CC1 + C=CC(=O)N1CCN(c2nc(OCC3CCCN3C)nc3c(F)c(-c4nc(N)cc(C)c4C(F)(F)F)c(Cl)cc23)C(C)C1 in the same way.
102

Consider next the compound CC(C)n1nc(-c2ccc3oc(N)nc3c2)c2c(N)ncnc21 + C=CC(=O)N1CCN(c2nc(OCC3CCCN3C)nc3c(F)c(-c4nc(N)cc(C)c4C(F)(F)F)c(Cl)cc23)C(C)C1 in the same way.
92.8

Recorded values, source PubChem BioAssay AID2060887.
